# TARGET ENTITY: SPNS2 (Mus musculus)
# PROCEDURE DETAILS: S1P transporter assay: S1P release from whole cells expressing SPNS2
# COND: HeLa or U937 cells expressing mouse SPNS2; 18 hours; S1P in media measured by LC-MS; read-out: IC50 (in vitro inhibition against SPNS2)
Structures can show the parent of a compound that is named as a salt.
READOUT TYPE: IC50

These solved cases illustrate the format of a correct answer.
CCCCCCCCCCc1ccc(-c2noc(CNC(=O)[C@@H]3C[C@H](O)CN3)n2)cc1 [Compound 9v, hydrochloride]
> 2000 nM
CCCCCCCCCCc1ccc(-c2noc(CNC(=O)[C@@H](N)C(C)C)n2)cc1 [Compound 9f, hydrochloride]
> 2000 nM
CCCCCCCCCc1ccc(Cc2noc(CCCN)n2)cc1 [Compound 5r, hydrochloride]
> 2000 nM
CCCCCCCCCCc1ccc(-c2noc(CCCN3CCCC3)n2)cc1 [Compound 6d, hydrochloride]
> 2000 nM
CCCCCCCCCCc1ccc(-c2noc(CNC(=O)[C@@H](N)Cc3ccccc3)n2)cc1 [Compound 9ac, hydrochloride]
> 2000 nM

input: Could you share which IC50 value was measured for CCCCCCCCCCc1ccc(-c2noc(CNC(=O)[C@@H]3CCC[C@H](N)C3)n2)cc1 [Compound 9r, hydrochloride] ?
output: ≤ 2000 nM

input: How about CCCCCCCCCCc1ccc(-c2noc(CCCN3CCCCC3)n2)cc1 [Compound 6e, hydrochloride] ?
output: > 2000 nM

input: How about CCCCCCCCCCc1ccc(-c2noc([C@@H](N)CCN)n2)cc1 [Compound 19c, dihydrochloride] ?
output: ≤ 2000 nM

input: How about CCCCCCCCCCc1ccc(-c2noc(CNC(=O)[C@@H](N)[C@@H](C)CC)n2)cc1 [Compound 9n, hydrochloride] ?
output: > 2000 nM

input: How about CCCCCCCCCCc1ccc(-c2noc(CC(O)CN3CCCCC3)n2)cc1 (centres unmarked) [Compound 6a, hydrochloride] ?
output: > 2000 nM

input: How about CCCCCCCCCCc1ccc(-c2noc([C@@H](N)CCCCN)n2)cc1 [Compound 19a, hydrochloride] ?
output: ≤ 2000 nM

input: How about CCCCCCCCCCc1ccc(-c2noc(CCCN3CCOCC3)n2)cc1 [Compound 6f, hydrochloride] ?
output: > 2000 nM

* * *

# TARGET ENTITY: SPNS2 (Mus musculus)
# PROCEDURE DETAILS: S1P transporter assay: S1P release from whole cells expressing SPNS2
# COND: HeLa or U937 cells expressing mouse SPNS2; 18 hours; S1P in media measured by LC-MS; read-out: IC50 (in vitro inhibition against SPNS2)
Where a name gives a salt, the structure may show the parent alone.
READOUT TYPE: IC50

These solved cases illustrate the format of a correct answer.
CCCCCCCCCCc1ccc(-c2noc(CNC(=O)[C@@H]3CC[C@@H](N)C3)n2)cc1 [Compound 9ah, hydrochloride]
≤ 2000 nM
CCCCCCCCCCc1ccc(-c2noc(CC(O)CN(C)C)n2)cc1 (stereo not shown) [Compound 7b, hydrochloride]
> 2000 nM
CCCCCCCCCCc1ccc(-c2noc(CNC(=O)[C@@H]3CCCN3)n2)cc1 [Compound 9m, hydrochloride]
≤ 2000 nM
CCCCCCCCCCc1ccc(-c2noc(C3CCNCC3)n2)cc1 [Compound 5a, 2,2,2-trifluoroacetate]
> 2000 nM

input: Could you share which IC50 value was measured for CCCCCCCCCCc1ccc(-c2noc(CC[C@@H](N)C(=O)O)n2)cc1 [Compound 5y, hydrochloride] ?
output: > 2000 nM

input: How about CCCCCCCCCCc1ccc(-c2noc(CCCNC)n2)cc1 [Compound 5m, hydrochloride] ?
output: > 2000 nM

* * *

# TARGET ENTITY: SPNS2 (Mus musculus)
# PROCEDURE DETAILS: S1P transporter assay: S1P release from whole cells expressing SPNS2
# COND: HeLa or U937 cells expressing mouse SPNS2; 18 hours; S1P in media measured by LC-MS; read-out: IC50 (in vitro inhibition against SPNS2)
# Procedure: Transporter assays are vectorial and therefore require measurement of the transported analyte in different compartments. The S1P transporter SPNS2 only exports S1P, which obviates measuring uptake of S1P into transporter-expressing cells. Thus, transporter activity was determined by quantifying S1P release from whole cells expressing SPNS2. SPNS2 inhibitor potency was assessed using whole cell assays. […] S1P and S1P-d7 were measured by liquid chromatography mass spectrometry. […]
Counter-ions that a name gives are not always drawn.
This listing pairs compounds with measured IC50.

input: Could you share which IC50 value was measured for CCCCCCCCCCc1ccc(-c2noc([C@@H](N)CCCN)n2)cc1 [Compound 19b, dihydrochloride] ?
output: > 2000 nM

input: How about CCCCCCCCCCc1ccc(-c2noc([C@@H]3CCN(C(=O)[C@H](C)N)C3)n2)cc1 [Compound 9ak, 2,2,2-trifluoroacetate] ?
output: ≤ 2000 nM

input: How about CCCCCCCCNC(=O)c1ccc(-c2noc([C@@H]3CCNC3)n2)cc1 [Compound 13c, hydrochloride] ?
output: > 2000 nM

input: How about CCCCCCCCCCc1ccc(-c2noc(CNC(=O)CN3CCNCC3)n2)cc1 [Compound 9c, hydrochloride] ?
output: > 2000 nM

input: How about CCCCCCCCCCc1ccc(-c2noc(CNC(=O)C3CCNCC3)n2)cc1 [Compound 9p, hydrochloride] ?
output: > 2000 nM

input: How about CCCCCCCCCCc1ccc(-c2noc(CNC(=O)[C@@H]3CCCCN3)n2)cc1 [Compound 9i, hydrochloride] ?
output: ≤ 2000 nM

input: How about CCCCCCCCCCc1ccc(-c2noc(CNC(=O)C3CCCCCN3)n2)cc1 (centres unmarked) [Compound 9u, hydrochloride] ?
output: ≤ 2000 nM

input: How about CCCCCCCCCCc1ccc(-c2noc([C@@H]3CCN(C(=O)[C@@H](N)C(C)C)C3)n2)cc1 [Compound 9ai, 2,2,2-trifluoroacetate] ?
output: ≤ 2000 nM

* * *

# TARGET ENTITY: UniProtKB Q91VM4
# Sequence (Q91VM4 1-549): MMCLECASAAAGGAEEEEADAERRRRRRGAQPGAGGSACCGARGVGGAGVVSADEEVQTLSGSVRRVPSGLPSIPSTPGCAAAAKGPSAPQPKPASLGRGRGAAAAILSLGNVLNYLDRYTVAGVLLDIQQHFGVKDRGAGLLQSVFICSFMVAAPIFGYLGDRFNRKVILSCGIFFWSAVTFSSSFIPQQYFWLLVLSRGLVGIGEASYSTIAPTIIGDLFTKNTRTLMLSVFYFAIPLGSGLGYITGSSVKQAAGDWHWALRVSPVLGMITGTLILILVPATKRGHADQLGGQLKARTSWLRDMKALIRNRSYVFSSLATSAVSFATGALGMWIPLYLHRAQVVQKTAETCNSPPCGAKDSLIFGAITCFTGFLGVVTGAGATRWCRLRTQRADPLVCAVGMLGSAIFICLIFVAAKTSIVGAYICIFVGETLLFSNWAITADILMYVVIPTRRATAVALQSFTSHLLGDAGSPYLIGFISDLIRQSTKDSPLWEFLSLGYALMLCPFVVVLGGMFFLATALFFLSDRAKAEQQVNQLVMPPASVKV
# PROCEDURE DETAILS: S1P transporter assay: S1P release from whole cells expressing SPNS2
# COND: HeLa or U937 cells expressing mouse SPNS2; 18 hours; S1P in media measured by LC-MS; read-out: IC50 (in vitro inhibition against SPNS2)
pIC50: −log10 of the molar value. Structures can show the parent of a compound that is named as a salt.
This listing pairs compounds with measured pIC50.

CCCCCCCCCCc1ccc(-c2noc(CC(O)CNCC)n2)cc1 (stereo not shown) [Compound 7a, hydrochloride]
< 5.70
CCCCCCCCCCc1ccc(-c2noc(C(=O)NCCCN)n2)cc1 [Compound 16b, hydrochloride]
< 5.70
CCCCCCCCCCc1ccc(-c2noc(CNC(=O)[C@H](C)N)n2)cc1 [Compound 9a, hydrochloride]
≥ 5.70
CCCCCCCCCCc1ccc(-c2noc(CNC(=O)C[C@@H]3CCCNC3)n2)cc1 [Compound 9o, hydrochloride]
< 5.70
CCCCCCCOc1ccc2cc(-c3noc(CCCN)n3)ccc2c1 [Compound 5w, hydrochloride]
≥ 5.70

input: Could you share which pIC50 value was measured for CCCCCCCCCCc1ccc(-c2noc(CNC(=O)[C@@H]3CCCNC3)n2)cc1 [Compound 9ag, hydrochloride] ?
output: ≥ 5.70

input: How about CCCCCCCCCCc1ccc(-c2noc(CCNC(=O)CN)n2)cc1 [Compound 9h, hydrochloride] ?
output: ≥ 5.70

input: How about CCCCCCCCCCc1ccc(-c2noc(CNC(=O)CN)n2)cc1 [Compound 9b, hydrochloride] ?
output: < 5.70

input: How about CCCCCCCCCCc1ccc(-c2noc(CNC(=O)[C@H]3CCCCN3)n2)cc1 [Compound 9t, hydrochloride] ?
output: < 5.70

input: How about CCCCCCCCCCc1ccc(-c2noc([C@@H]3CC[C@H](N)C3)n2)cc1 [Compound 5d, hydrochloride] ?
output: < 5.70

All figures here come from patent US20230373937A1.
